System: TO-N3 (biotin conjugate)
Test: pull-down binding Z-score (relative to library population); higher = stronger binding
Conditions: RNA library: Library-2
y means recorded pull-down binding Z-score is 0.4 or above; n means it is below 0.4.

// known answers, use as guide
- UUAUACCUGAUGCUCACGUAUAA [hsa-mir-208a]: n
- AGCAGUACCAGAUGGUUCUGUGG [hsa-mir-3198-2]: n

Kindly determine if pull-down binding Z-score recorded for CAUUCUUUGCUA [hsa-mir-567] is above or exactly 0.4. y

Kindly determine if pull-down binding Z-score recorded for `GUUGAUGAGCCUGAAGAACAUGUCCAAAUUCACACAAUCGACGGUUCAUCCGGAGUUGUUAAUCCAGUAAUGGAACCAAUUUAUGAUGAACCGACGACGAC` is above or exactly 0.4. y

Kindly determine if pull-down binding Z-score recorded for GGCCAGGUUUCAAGGCC [IAV_invivo_PA_3_Motif_22+IAV_invivo_PA_3_Motif_22] is above or exactly 0.4. n

Kindly determine if pull-down binding Z-score recorded for UGAGUGCUAUUUCAGUGCAACA [hsa-mir-362] is above or exactly 0.4. y

Kindly determine if pull-down binding Z-score recorded for UAUAUUCGGUUUAUUGACAUGGAAUAUA [hsa-mir-381] is above or exactly 0.4. y

Kindly determine if pull-down binding Z-score recorded for `AUAAAGAAAUGUAUCUAAAGUUGCGUAGUGAUGUGCUAUUACCUCUUACGCAAUAUAAUAGAUACUUAGCUCUUUAU` is above or exactly 0.4. n

Kindly determine if pull-down binding Z-score recorded for UUUUGCAUUUAAAGUAAUGGCCAAA [hsa-mir-548ay] is above or exactly 0.4. n

Kindly determine if pull-down binding Z-score recorded for GAGCCUUAAAGGAUGAGGUA [hsa-mir-4280] is above or exactly 0.4. n

----------
The reader will find reported pull-down binding Z-score values listed item by item below.
Test system: TO-N3 (biotin conjugate)
Assay: pull-down binding Z-score (relative to library population); higher = stronger binding
Details: RNA library: Library-2
When you answer, write just the number.

* CAAAGACCAGAACUUAAUGGUCUCUG [hsa-mir-4490] | -0.888
* GGUCAGGUGGUGCCCUCCUUCCAUGGGUAGAGCCAGAGAUGGUGGGUUCUGGCU [hsa-mir-6131] | 1.16
* UUCUAGUCCCUAUUAGACUAGAA [hsa-mir-5681a] | -1
* CUGUUCAGGACUCCCAAAUUGUACAG [hsa-mir-199b] | 1

Kindly consider the entry below.
Measured pull-down binding Z-score, `UGCAACGAUACCGAUACAAGCCUCACUCCCUUUCGGAUGGCUUAUUGUUGGCGUUGCA` : -0.366

----------
System: G-clamp-N3 (biotin conjugate)
Assay: pull-down binding Z-score (relative to library population); higher = stronger binding
Conditions: RNA library: Library-1 (pre-miRNA loops + repeats)
true means recorded pull-down binding Z-score is -0.8 or above; false means it is below -0.8.

• AGAAGCUAAAGUGUAGAUCAAACGCAUAAUGGCUGA [hsa-mir-4500] = true
• CCAGGCCCCACGGAGAACCAGGGCACCUGG [hsa-mir-8058] = true
• CUGGGUUCUUAGAGGCCUAAUCCUCUACAAACUCAGUUU [hsa-mir-4305] = false
• AGAUCACUUUUCUGCACUGGACAGUGAUCU [hsa-mir-3686] = true
• UGGAAGCUCCAGGUGCCAACCACCUGCCUCUA [hsa-mir-6731] = false

Kindly determine if pull-down binding Z-score recorded for GUGUUUAUUUUUUACUAAAUAG [hsa-mir-4766] is above or exactly -0.8. false

Kindly determine if pull-down binding Z-score recorded for GAAGGAAGGCAAGGCUGUCUGUCCAUC [hsa-mir-4800] is above or exactly -0.8. false

Kindly determine if pull-down binding Z-score recorded for UGGUUGGUUGGUUGGUUGGUUGGUUGGUUGGU [G4_(UGGU)8] is above or exactly -0.8. true

Kindly determine if pull-down binding Z-score recorded for UUUCUCUUGUCUAAAAGAAAAGAAA [hsa-mir-518f] is above or exactly -0.8. true

Kindly determine if pull-down binding Z-score recorded for GGCAGUGGUUCUAAAAGCUGUC [hsa-mir-3618] is above or exactly -0.8. true

Kindly determine if pull-down binding Z-score recorded for ACCCAGGACUCUUUCAUGACCA [hsa-mir-665] is above or exactly -0.8. true

----------
System: TO-3-N3 (biotin conjugate)
Test: pull-down binding Z-score (relative to library population); higher = stronger binding
Conditions: RNA library: Library-2
OUTCOME MEASURE: pull-down binding Z-score
When you answer, write just the number.

Examples with answers:
• CCGACUCGGGCUCUGGAGCAGUC [hsa-mir-152] = 0.836
• GCGCGGGAAAGUUCGGGAACGCGCG [hsa-mir-4479] = 0.386
• AAAACUUUCAUCCAAGUCAUU [hsa-mir-378d-2] = 0.382
• GUCUGGCAUUGUCUGAUAUAC [hsa-mir-1294] = 1.12
• GGAAACUGAGACUUUGUAACUAUGUCUCAGUCUCA [hsa-mir-452] = -0.179

Measured pull-down binding Z-score, GGGACUUAUGAUUAUCCC [IAV_invivo_HA_4_Motif_18+IAV_invivo_HA_4_Motif_18] : 0.293

Measured pull-down binding Z-score, CUGGGAGGUGUGAUAUCGUGGUUCCUGG [hsa-mir-3689c] : 1.02

Measured pull-down binding Z-score, GCUUGCUGUACAUAACUCAAUAGCCGGAAGC [hsa-mir-129-2] : -0.0763

Measured pull-down binding Z-score, `ACAAGAUGAUAAGAAAAUCAAAGCUUGU` : -0.879

Measured pull-down binding Z-score, `AUUGUUCAACUUAGUGAAAUUAGUAUGGACAAU` : 0.851

Measured pull-down binding Z-score, CAAGGGCUCUCCUGAAAGGACAGUAGAGCCCUUG [hsa-mir-4776-1] : 1.31

----------
System: TO-3-N3 (biotin conjugate)
Test: pull-down binding Z-score (relative to library population); higher = stronger binding
Settings: RNA library: Library-2
OUTCOME MEASURE: pull-down binding Z-score
When you answer, write just the number.

• CAUGCUGAUUUUGACACAUGGUUUAGCCAGCGUG [DMSMaPseq_invitro_SARS-CoV-2_Motif_160] = -0.604
• AUCCCUUAGAUGCUAAGAUGGGGAU [hsa-mir-145] = -0.278
• AAGGGUGUAUGAGAGAUCAACCCUU [hsa-mir-5697] = 0.544
• UAAGGAAGGAAGUUCUGUUGAAUUAAAACACUUCUUCUUUG [SHAPE_invitro_SARS-CoV-2_Motif_269] = -0.963
• GUAGAUUGAAAGCCCUAAUUUUAC [hsa-mir-3941] = -0.486
• GCACUGACUUGCUUUAGCACUCAAUUUGCUUUUGCUUGUCCUGACGGCGUAAAACACGUCUAUCAGUUACGUGC = 0.239

Measured pull-down binding Z-score, UCCAGAGGCAUCCCUAACCCAGAAUCUUUUGACUGUCCUCUGGA [hsa-mir-4306] : -0.198

Measured pull-down binding Z-score, GCCCUGGAAUGAUGAUGGGC [IAV_invivo_PB1_2_Motif_20+IAV_invivo_PB1_2_Motif_20] : 0.0132

Measured pull-down binding Z-score, GGGAGCAUGAACAAUGUUUCUCACUCCC [hsa-mir-3162] : 0.186

----------
Test system: TO-3-N3-2 (biotin conjugate)
Experiment: pull-down binding Z-score (relative to library population); higher = stronger binding
Details: RNA library: Library-2
MET means recorded pull-down binding Z-score is -0.3 or above; NOT MET means it is below -0.3.

// known answers, use as guide
• CCCCCAAUUAAAGUAGAUUGGGGG [hsa-mir-3153] = NOT MET
• GUGGCCCUGAUGGCUAC = NOT MET

Kindly determine if pull-down binding Z-score recorded for GGGGAUGGACUGGAAGUGGGCAGCAUGGAGCUGACCUUCAUCAUGGCUUGGCCAACAUAAUGCCUC [hsa-mir-1236] is above or exactly -0.3. MET

Kindly determine if pull-down binding Z-score recorded for CAGAGUCGUAUUUGUCUUAUGGGCACAUGGCUUUG [SHAPE_invivo_SARS-CoV-2_Motif_350] is above or exactly -0.3. MET

Kindly determine if pull-down binding Z-score recorded for GUGUCCUUUCUUCUGAGAGCUGGACAC [hsa-mir-6500] is above or exactly -0.3. NOT MET

Kindly determine if pull-down binding Z-score recorded for CUGGGAAGAGACCAUGAACAGGUUAGUCCAG [hsa-mir-4327] is above or exactly -0.3. MET

Kindly determine if pull-down binding Z-score recorded for CCGCCUUUGUGCUGUCCUUGGAGGGAGG [hsa-mir-1910] is above or exactly -0.3. MET
